experiment: Toxicity in mouse assessed as death rate at 750 mg/kg, ip administered for 16 days relative to control; assay type: organism-based; details: in vivo, time 16 day, read-out: Activity
observation_type: mortality at 384 h
Express the reported value numerically, then name its unit.

Request: Return reported mortality at 384 h; argument: COc1ccc(C(=O)Nc2cc(-c3ccnc(N4CCC(O)CC4)c3)ccn2)cc1
Result: 40%

----------
assay: Cytotoxicity against human MCF-10A cells assessed as inhibition of cell growth by MTT assay; format: toxicity, cell-based
observation_type: pIC50
Numbers only, as −log10 of the molar value.

Request: I am curious: what pIC50 value has been reported for CCOc1cc(/C=N/O)ccc1OCC#CC1c2c(cc3c(c2OC)OCO3)CCN1C (stereo unspecified) ?
Result: 4.45
